Experiment: Cytotoxic activity was measured in human embryonic lung cells(HeLa)
Type: functional
testReadout: CC50 (µg/mL)
State the answer as a number, implicitly in µg/mL.

[
  {
    "moleculeSmiles": "O=C1c2ccccc2N(COCc2ccccc2)S(=O)(=O)N1Cc1ccccc1",
    "unitsText": "µg/mL",
    "CC50": 25
  }
]

Consider the additional compound presented here.
Return reported CC50; argument: `C#CCOCN1c2ccccc2C(=O)N(Cc2ccccc2)S1(=O)=O`
23

Origin of the recorded values: ChEMBL document CHEMBL1129905
